- Measured on: Kv1.5 (Homo sapiens, UniProt P22460)
- Construct: expressed in transfected cells; host or cells: HEK or LTK- cells
- Sequence (P22460 whole entry): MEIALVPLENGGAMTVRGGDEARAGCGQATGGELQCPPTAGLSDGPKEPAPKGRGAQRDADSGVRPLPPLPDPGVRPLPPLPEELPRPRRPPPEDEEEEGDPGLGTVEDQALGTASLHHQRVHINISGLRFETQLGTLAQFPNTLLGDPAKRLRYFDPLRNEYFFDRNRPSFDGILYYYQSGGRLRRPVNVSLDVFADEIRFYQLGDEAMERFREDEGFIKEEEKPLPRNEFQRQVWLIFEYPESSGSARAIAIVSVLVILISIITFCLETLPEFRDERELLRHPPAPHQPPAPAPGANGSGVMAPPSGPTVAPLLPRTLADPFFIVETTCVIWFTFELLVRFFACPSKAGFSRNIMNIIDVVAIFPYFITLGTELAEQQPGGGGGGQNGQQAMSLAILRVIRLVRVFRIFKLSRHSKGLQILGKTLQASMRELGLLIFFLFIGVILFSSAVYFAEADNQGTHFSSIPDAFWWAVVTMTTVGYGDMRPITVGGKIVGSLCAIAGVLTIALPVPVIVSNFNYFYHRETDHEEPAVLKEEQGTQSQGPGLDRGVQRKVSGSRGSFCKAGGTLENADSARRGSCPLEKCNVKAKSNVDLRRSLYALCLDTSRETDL
- Run description: Kv1.5 Patch Clamp EP
- Assay type: cell-based
- Condition parameters: 1.0 μM, single point; whole cell patch clamp, Kv1.5 stably over expressed in HEK or LTK- cells
Category key, based on recorded inhibition at 1 µM: c1: < 30%; c2: ≥ 30% and < 80%; c3: ≥ 80%

1) CCOc1ccc(CCN2C(=O)N(NS(C)(=O)=O)CC2c2ccc(OC)cc2)cc1 (centres unmarked) :: c1
2) COc1ccc(CCN2C(=O)N(NS(C)(=O)=O)CC2c2ccc(C)c(OC)c2)cc1 (centres unmarked) :: c3
3) COc1ccc(CCN2C(=O)N(NCc3ccccc3)CC2c2ccc(C)c(C)c2)cc1 (centres unmarked) :: c3
4) CC(C)(C)c1ccc(C2CN(NS(C)(=O)=O)C(=O)N2CCCc2ccccc2)cc1 (centres unmarked) :: c2
5) COc1ccc(CCN2C(=O)N(NS(C)(=O)=O)CC2c2ccc(C)cc2)cc1 (centres unmarked) :: c2
6) COc1ccc(CCN2C(=O)N(NC(=O)c3ccno3)CC2c2ccc(C(C)(C)C)cc2)cc1 (centres unmarked) :: c2
7) COc1ccc(CCN2C(=O)N(NCc3nccn3C)CC2c2ccc(C)c(C)c2)cc1 (centres unmarked) :: c1
8) COc1ccc(CCN2C(=O)N(NCc3ccncc3)CC2c2ccc(C)c(C)c2)cc1 (centres unmarked) :: c2
9) COc1ccc(CCN2C(=O)N(NCc3ccc(N(C)C)cc3)CC2c2ccc(C)c(C)c2)cc1 (centres unmarked) :: c3
10) COc1ccc(CCN2C(=O)N(NS(C)(=O)=O)CC2C2(c3ccccc3)CC2)cc1 (centres unmarked) :: c1
11) COc1ccc(CCN2C(=O)N(NS(=O)(=O)Cc3ccccc3)CC2c2ccc(C)c(C)c2)cc1 (centres unmarked) :: c3
12) C=CS(=O)(=O)NN1CC(c2ccc3c(c2)OCCO3)N(CCc2ccc(OC)cc2)C1=O (centres unmarked) :: c3
13) COc1ccc(CCN2C(=O)N(NS(=O)(=O)CC#N)CC2c2ccc(OC)cc2)cc1 (centres unmarked) :: c2
14) COc1ccc(CCN2C(=O)N(NS(=O)(=O)Cc3cccnc3)CC2c2ccc(F)cc2)cc1 (centres unmarked) :: c1
15) COc1ccc(CCN2C(=O)N(NS(=O)(=O)c3cccnc3)CC2c2ccc(OC)cc2)cc1 (centres unmarked) :: c1
16) COc1ccc(C2CN(NS(C)(=O)=O)C(=O)N2CCc2ccc(OC(F)F)cc2)cc1 (centres unmarked) :: c2
17) COc1ccc(CCN2C(=O)N(NS(=O)(=O)CC(=O)NC3CC3)CC2c2ccc(C3CC3)cc2)cc1 (centres unmarked) :: c3
18) COc1ccc(CCN2C(=O)N(N)CC2c2ccc(OC(F)F)cc2)cc1 (centres unmarked) :: c2
19) COc1ccc(CCN2C(=O)N(NCc3ccc(C#N)cc3)CC2c2ccc(C)c(C)c2)cc1 (centres unmarked) :: c3
20) COc1ccc(CCCN2C(=O)N(N)CC2c2ccc(C3CC3)cc2)cc1 (centres unmarked) :: c2
21) COc1ccc(CCN2C(=O)N(NS(=O)(=O)CCS(C)(=O)=O)CC2c2ccc(C3CC3)cc2)cc1 (centres unmarked) :: c2
22) COc1ccc(CCN2C(=O)N(N)CC2C2(c3ccc(F)cc3)CC2)cc1 (centres unmarked) :: c1
23) COc1ccc(CCCN2C(=O)N(NS(C)(=O)=O)CC2c2ccc(C3CC3)cc2)cc1 (centres unmarked) :: c3
24) CCN(CC)c1ccc(CNN2CC(c3ccc(C(C)(C)C)cc3)N(CCc3ccc(OC)cc3)C2=O)cc1 (centres unmarked) :: c1
25) COc1ccc(CCN2C(=O)N(N3CCNCC3)CC2c2ccc(C(C)(C)C)cc2)cc1 (centres unmarked) :: c1
26) COc1ccc(CCN2C(=O)N(NS(=O)(=O)CF)CC2c2ccc(C3CC3)cc2)cc1 (centres unmarked) :: c3
27) COc1ccc(CCN2C(=O)N(NS(=O)(=O)CC(=O)NCC3CC3)C[C@H]2c2ccc(OC)cc2)cc1 :: c2
28) COc1ccc(CCN2C(=O)N(N)CC2c2ccc(OC(C)C)cc2)cc1 (centres unmarked) :: c1
29) COc1ccc(CCN2C(=O)N(NS(=O)(=O)C(F)(F)F)CC2c2ccc(C(C)(C)C)cc2)cc1 (centres unmarked) :: c1
30) COc1ccc(CCN2C(=O)N(NS(C)(=O)=O)CC2c2ccc(F)cc2)cc1 (centres unmarked) :: c1
31) COc1ccc(CCN2C(=O)N(N(CCn3ccnc3)C(C)=O)CC2c2ccc(C(C)(C)C)cc2)cc1 (centres unmarked) :: c2

* * *

- Measured on: Kv1.5 (Homo sapiens)
- Construct: expressed in transfected cells; host or cells: HEK or LTK- cells
- Run description: Kv1.5 Patch Clamp EP
- Format: cell-based
- Condition parameters: 1.0 μM, single point; whole cell patch clamp, Kv1.5 stably over expressed in HEK or LTK- cells
Short version: inhibition at 1 µM at least 10% is 1 (yes), less is 0 (no).

1. COc1ccc(CCN2C(=O)N(NC(=O)C3CC3)CC2c2ccc(C(C)(C)C)cc2)cc1 (centres unmarked) :: 1 (yes)
2. COc1ccc(CCN2C(=O)N(NS(C)(=O)=O)CC2Cc2ccc(F)cc2)cc1 (centres unmarked) :: 0 (no)
3. CNC(=O)N1CCN(N2CC(c3ccc(C(C)(C)C)cc3)N(CCc3ccc(OC)cc3)C2=O)CC1 (centres unmarked) :: 1 (yes)
4. COc1ccc(CCN2C(=O)N(NS(C)(=O)=O)CC2c2ccc(OC)nc2)cc1 (centres unmarked) :: 0 (no)
5. COc1ccc(CCCN2C(=O)N(N)CC2c2ccc(C(C)(C)C)cc2)cc1 (centres unmarked) :: 1 (yes)
6. COc1ccc(C2CN(NS(C)(=O)=O)C(=O)N2CCc2ccc(OC(F)(F)F)cc2)cc1 (centres unmarked) :: 1 (yes)
7. COc1ccc(CCN2C(=O)N(NS(=O)(=O)Cc3cccnc3)CC2c2ccc(C)cc2)cc1 (centres unmarked) :: 1 (yes)
8. COc1ccc(CCN2C(=O)N(NS(=O)(=O)CS(C)(=O)=O)CC2c2ccc(OC)cc2)cc1 (centres unmarked) :: 1 (yes)

* * *

- Measured on: UniProtKB Q12809
- Sequence (Q12809 whole entry): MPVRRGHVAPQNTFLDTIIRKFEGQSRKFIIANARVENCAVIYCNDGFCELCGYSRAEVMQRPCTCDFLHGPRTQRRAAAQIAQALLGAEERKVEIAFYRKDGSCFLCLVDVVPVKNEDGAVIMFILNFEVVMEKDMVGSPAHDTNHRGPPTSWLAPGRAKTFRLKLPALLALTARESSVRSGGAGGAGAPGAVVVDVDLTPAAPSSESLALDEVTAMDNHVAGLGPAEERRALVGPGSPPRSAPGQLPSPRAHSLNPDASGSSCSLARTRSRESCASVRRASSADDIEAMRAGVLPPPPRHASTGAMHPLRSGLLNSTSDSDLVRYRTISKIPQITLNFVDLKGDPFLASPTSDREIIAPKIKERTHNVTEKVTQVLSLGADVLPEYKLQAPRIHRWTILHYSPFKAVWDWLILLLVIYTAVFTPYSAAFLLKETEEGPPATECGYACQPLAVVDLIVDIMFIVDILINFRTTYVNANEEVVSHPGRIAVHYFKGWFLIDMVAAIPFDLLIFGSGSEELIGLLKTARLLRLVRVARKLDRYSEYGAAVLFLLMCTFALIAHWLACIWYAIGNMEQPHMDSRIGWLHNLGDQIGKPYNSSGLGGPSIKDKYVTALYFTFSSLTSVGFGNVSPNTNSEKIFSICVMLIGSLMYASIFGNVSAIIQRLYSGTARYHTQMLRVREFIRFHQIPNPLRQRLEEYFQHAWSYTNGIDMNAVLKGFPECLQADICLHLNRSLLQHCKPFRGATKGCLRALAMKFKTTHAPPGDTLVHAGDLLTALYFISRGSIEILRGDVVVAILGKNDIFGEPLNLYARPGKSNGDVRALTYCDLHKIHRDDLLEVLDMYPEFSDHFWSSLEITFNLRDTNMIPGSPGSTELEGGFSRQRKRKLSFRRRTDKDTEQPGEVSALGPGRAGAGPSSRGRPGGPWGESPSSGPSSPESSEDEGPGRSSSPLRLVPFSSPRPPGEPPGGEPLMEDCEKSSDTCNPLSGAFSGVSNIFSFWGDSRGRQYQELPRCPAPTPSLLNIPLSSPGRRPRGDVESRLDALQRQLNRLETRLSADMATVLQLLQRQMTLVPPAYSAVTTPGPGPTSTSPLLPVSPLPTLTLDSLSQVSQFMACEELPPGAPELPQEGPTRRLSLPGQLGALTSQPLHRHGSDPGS
- Run description: HERG Patch Clamp EP
- Condition parameters: human, HEK cells stably overexpressing HERG
Outcome measure: inhibition at 10 µM (%)

1) CCN(CC)c1ccc(C2CN(NS(C)(=O)=O)C(=O)N2CCc2ccc(OC)cc2)cc1 (stereo not shown) [Compound 25] :: 31
2) COc1ccc(CCN2C(=O)N(NC(=O)C3CC3)CC2c2ccc(C(C)(C)C)cc2)cc1 (stereo not shown) [Compound 73] :: 56
3) CCCS(=O)(=O)NN1CC(c2ccc(C3CC3)cc2)N(CCc2ccc(OC)cc2)C1=O (stereo not shown) [Compound 30] :: 62
4) COc1ccc(CCN2C(=O)N(NS(=O)(=O)CC(=O)N(C)C)CC2c2ccc(C3CC3)cc2)cc1 (stereo not shown) [Compound 54] :: 46
5) COc1ccc(CCN2C(=O)N(NS(=O)(=O)CS(C)(=O)=O)CC2c2ccc(C3CC3)cc2)cc1 (stereo not shown) [Compound 61] :: 28
6) COc1ccc(CCN2C(=O)N(NS(=O)(=O)Cc3ccccc3)CC2c2ccc(OC)cc2)cc1 (stereo not shown) [Compound 63] :: 44
7) COc1ccc(C2CN(NS(C)(=O)=O)C(=O)N2CCc2ccc(OC(F)F)cc2)cc1 (stereo not shown) [Compound 142] :: 91
8) COc1ccc(CCN2C(=O)N(NS(=O)(=O)CF)CC2c2ccc(C(C)(C)C)cc2)cc1 (stereo not shown) [Compound 36] :: 50
9) COc1ccc(CCN2C(=O)N(NC(=O)c3ccno3)CC2c2ccc(C(C)(C)C)cc2)cc1 (stereo not shown) [Compound 79] :: 70
10) COc1ccc(CCN2C(=O)N(NS(C)(=O)=O)C[C@H]2c2ccc(OC)cc2)cc1 [Compound 106] :: 17
11) COc1ccc(CCN2C(=O)N(N(CCn3ccnc3)C(=O)C(C)C)CC2c2ccc(C(C)(C)C)cc2)cc1 (stereo not shown) [Compound 99] :: 90
12) COc1ccc(CCN2C(=O)N(NS(=O)(=O)CC(N)=O)CC2c2ccc(C3CC3)cc2)cc1 (stereo not shown) [Compound 52] :: 29
13) COc1ccc(CCN2C(=O)N(N(C)S(=O)(=O)Cc3ccccc3)CC2c2ccc(C)c(C)c2)cc1 (stereo not shown) [Compound 67] :: 22
14) COc1ccc(C2CN(NS(=O)(=O)Cc3cccnc3)C(=O)N2CCCc2ccccc2)cc1 (stereo not shown) [Compound 101] :: 24
15) COc1ccc(CCCN2C(=O)N(N)CC2c2ccc(C3CC3)cc2)cc1 (stereo not shown) [Compound 4] :: 53
16) COc1ccc(CCN2C(=O)N(NCc3cccnc3)CC2c2ccc(C)c(C)c2)cc1 (stereo not shown) [Compound 94] :: 35
